List of GI50 tested on SNB-75 CNS.

Some compounds with recorded GI50:
INSERT INTO assay_data (compound, result) VALUES
  ('Cc1ccc2cc3c(N)c4c(C)ccc(C)c4nc3nc2c1', '5.97 µM'),
  ('COc1ccc(C2C(C#N)=C(N)Oc3c2sc2c(C)cccc32)cc1 (stereo unspecified)', '0.221 µM'),
  ('COC(=O)/C=C1/SC(=Nc2ccc(C(F)(F)F)cc2)N(CCc2c[nH]c3ccc(O)cc23)C1=O', '2.27 µM'),
  ('CCOC(=O)c1ccc2c(c1)c1c(C)c3cnccc3c(C)c1n2C', '0.141 µM'),
  ('C=CCSSC1N=CNc2nc[nH]c21 (stereo unspecified)', '3.18 µM');

Shifting focus to the compound that follows.
Consider the compound CC#CC#Cc1cccc(=O)o1 and give its measured GI50. 4.75 µM
